biological target: T1, recombinant biotinylated human CD137 protein (Fc-fusion protein, R&D Systems 838-4B) (human, UniProt Q07011 24-186, biotinylated (site not stated)); assay: ELISA, bacterial lysate on plate-bound antigen, luminescence
T1 construct: Bought Fc fusion; The ELISA used the same antigen as the panning; also called CD137-Fc; biotinylated CD137; not shown: Fc part of the bought fusion protein
Catalogue of ELISA CD137-Fc (RLU) values
Hi! Could you send only the number? It should be in RLU, unit omitted.

Examples with their reported ELISA CD137-Fc (RLU) follow.
* ISOP120BR5P1B9 (designed binder, not shown: small tags and cut ends, FN3 domain (Centyrin); tested as E. coli lysate) LPAPKNLVVSRVTEDSARLSWAVEFNPTKFDSFLIQYQESEKVGEAIVLTVPGSERSYDLTGLKPGTEYTVSIYGVWWFEQWYPVSNPLSAIFTT | 358000
* ISOP120HR5P1H4 (designed binder, not shown: small tags and cut ends, FN3 domain (Centyrin); tested as E. coli lysate) LPAPKNLVVSRVTEDSARLSWTAPDAAFDSFDILYLEPYQEGEAIVLTVPGSERSYDLTGLKPGTEYLVTIYGVKGGYYSLPLSAIFTT | 630000
* ISOP120ER5P1E10 (designed binder, not shown: small tags and cut ends, FN3 domain (Centyrin); tested as E. coli lysate) LPAPKNLVVSRVTEDSARLSWTAPDAAFDSFEIYYMEDFHSGEAIVLTVPGSERSYDLTGLKPGTEYWVTIYGVEGGTGSLPLSAIFTT | 810000
* ISOP120BR5P1F1 (designed binder, not shown: small tags and cut ends, FN3 domain (Centyrin); tested as E. coli lysate) LPAPKNLVVSRVTEDSARLSWTFHPTFEGFDSFLIQYQESEKVGEAIVLTVPGSERSYDLTGLKPGTEYTVSIYGVKWTVLRPWLSNPLSAIFTT | 542000

Incoming: Consider the binder ISOP120BR5P1D9 (designed binder, not shown: small tags and cut ends, FN3 domain (Centyrin); tested as E. coli lysate) LPAPKNLVVSRVTEDSARLSWTINSHIFDSFLIQYQESEKVGEAIVLTVPGSERSYDLTGLKPGTEYTVSIYGVWGTKYWQAQSNPLSAIFTT and give its measured ELISA CD137-Fc (RLU).
Outgoing: 1.22e+06

Incoming: Quick one: ISOP120BR5P1D3 (designed binder, not shown: small tags and cut ends, FN3 domain (Centyrin); tested as E. coli lysate) LPAPKNLVVSRVTEDSARLSWSEHPTPFATFDSFLIQYQESEKVGEAIVLTVPGSERSYDLTGLKPGTEYTVSIYGVWWVENHFPVSNPLSAIFTT
Outgoing: 1.14e+06

Incoming: And ISOP120ER5P1C6 (designed binder, not shown: small tags and cut ends, FN3 domain (Centyrin); tested as E. coli lysate) LPAPKNLVVSRVTEDSARLSWTAPDAAFDSFSIYYGEWHALGEAIVLTVPGSERSYDLTGLKPGTEYVVTIYGVKGGTYSLPLSAISTT ?
Outgoing: 495000
